Origin of values: paper PMC10993450

Would you mind telling me the reported CC50 at 72 h of each entry?
# ASSAY REMARKS: Cytotoxicity assay, alamarBlue
# Type: cell-based, human
# CONDITIONS USED: human, HepG2 cells; 72 h exposure, alamarBlue; read-out: CC50 Hep-G2

Below, each entry is followed by its recorded CC50 at 72 h result.
Cc1ccc2[nH]c(NCc3cccs3)nc2c1 : > 50 µM
COc1ccc2[nH]c(NC(=O)c3ccccc3)nc2c1 : > 100 µM
Cc1ccc2[nH]c(NC(=O)c3ccccc3)nc2c1 : > 100 µM
CSc1nc2cc(Cl)c(Oc3cccc(Cl)c3Cl)cc2[nH]1 [TCBZ, triclabendazole, reference compound] : > 50 µM

Next molecule, CC50 at 72 h to be filled in.
Entry `O=C(Nc1nc2cc(Cl)ccc2[nH]1)c1ccccc1` — recorded CC50 at 72 h = > 100 µM
